- Measured On: Solute carrier family 12 member 5 (Homo sapiens)
- Measurement Description: KCC2 inhibitors and activators, ouabain retest, confirmation, HEK-KCC2 cells (AID 1717);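 further: slope of initial-normalized fluorescence between seconds 10 and 20 after thallium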
- Condition: HEK293-KCC2, thallium flux FluoZin2 fluorescence, at 10 µM, bidirectional: low = inhibitor, high = activator
Some of the results follow. Results filed as inconclusive are left out.
Test Readout: raw Tl+ flux slope (below DMSO = inhibition, above = activation)

> print(dat)
                                    molecule  recorded.value
 1    COc1ccc(Oc2c(Cl)cnn(-c3ccccc3)c2=O)cc1          0.0166
 2  CC1CCCCN1S(=O)(=O)c1ccc(C(=O)Nc2nnc(-c3cccs3)o2)cc1 (centres undefined)          0.0294
 3  C[C@@H](C(=O)Nc1ccc2ccccc2c1)[C@@H]1C[C@@]1(C)[C@@H](NC(=O)c1cccnc1)c1ccccc1          0.0135
 4       O=C(CSc1ccc(-c2cccs2)nn1)Nc1ccccc1F           0.017
 5       O=C(CSc1cccc2cccnc12)N/N=C/c1cccnc1          0.0449
 6  CC[C@@H](C)[C@@H](C(=O)N1CCN(C(=O)OC(C)(C)C)CC1)n1cc(CCC(=O)O)nn1          0.0234
 7              CN(C)c1nc(=Nc2cccc(Cl)c2)ss1          0.0696
 8  O=S(=O)(c1cccc(S(=O)(=O)N2CCC(n3nnc4ccccc43)CC2)c1)N1CCCCC1          0.0174
 9  O=C(O)CCN(Cc1ccccc1)S(=O)(=O)c1c(Cl)cccc1Cl           0.012
10  Cc1ccc(OCC(=O)N2CCN(C(=O)c3cccnc3)CC2)cc1          0.0189
11  CC1Cc2ccccc2N1C(=O)CSc1nc2ccccc2o1 (centres undefined)          0.0143
12          CCc1cc(-c2n[nH]c(=S)n2CC(C)C)cs1          0.0381
13  CCC(C)Cn1c(O)cc2nn(-c3nc4ccccc4s3)c(=O)c-2c1C (centres undefined)          0.0409
14  Cc1[nH]n(-c2ccccc2)c(=O)c1N=Nc1ccccc1C(=O)N1CCCCC1          0.0253
15  Cc1nc(SCC(=O)N2CCc3ccccc3C2)c2c(C)c(C)sc2n1          0.0144
16  CS(=O)(=O)N(CC(=O)N1CCN(c2ccc(F)cc2)CC1)C1CCCCC1          0.0176
17          Cc1cc(C(=O)NNC(=S)Nc2ccccc2C)cs1          0.0239
18         c1ccc2c(C[n+]3csc4ccccc43)cccc2c1          0.0315
19  COC(=O)c1sc(NC(=S)NC(=O)c2ccc(C)cc2)nc1C          0.0617
20  O=C(Oc1c(-c2ccco2)oc2ccccc2c1=O)c1cccnc1          0.0573
21               CCCCn1c(=S)[nH]c2ncccc2c1=O          0.0884
22    O=C(Nc1ccc2oc(-c3ccccc3F)nc2c1)c1ccco1          0.0137
23  COC(=O)c1sccc1NC(=O)c1cc(OC)c(OC)c(OC)c1          0.0198
24    Fc1ccc(COc2cccc(-c3n[nH]c(=S)o3)c2)cc1           0.042
25  COc1ccccc1N1CCN(C(=O)CSc2ncnc3c2cnn3-c2ccc(C)c(C)c2)CC1          0.0176
26  Cc1cccc(NS(=O)(=O)c2ccc(C)c(C(N)=O)c2)c1          0.0187
27              CCc1c(SCCC(=O)O)nc2ccccc2c1C          0.0166
28      COc1cccc2sc(Nc3nc(C)c(C(C)=O)s3)nc12          0.0215
29  Cc1ccc(Nc2nnc(SCC(=O)c3cc4ccccc4o3)s2)cc1C         0.00819
30  CCOC(=O)CSc1nnc(CNC(=O)c2cccs2)n1-c1ccccc1          0.0178
31  O=S(=O)(c1ccc(F)cc1)N1CCN(C(=S)NCc2ccco2)CC1          0.0185
32      C=CCn1c(=S)[nH]c2scc(-c3ccco3)c2c1=O          0.0814
33  COc1cccc(CNC(=O)Cc2csc(Nc3nc(=S)[nH]c4ccccc34)n2)c1          0.0519
34  CC(C)(C)c1ccc(C(=O)NCC(=O)OCN2C(=O)c3ccccc3C2=O)cc1          0.0171
35  O=C(Nc1nnc(C2COc3ccccc3O2)o1)c1ccc(F)cc1 (centres undefined)          0.0495
36      S=C(NN=C1CCN(Cc2ccccc2)CC1)NC1CCCCC1          0.0155
37  COc1ccc(NC(=O)c2ccccc2[N+](=O)[O-])cc1OC          0.0198
38                        O=c1[nH]c2ccccc2s1          0.0175
39        O=C1/C(=C\c2ccsc2)NC(=S)N1c1ccccc1          0.0341

---

- Measurement Description: inhibitors of TNFa-induced NFkB p65 translocation, primary screen, imaging, HUVEC, MLSMR starter and 10KST1 sets (AID 438);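 further: compound added about 3h40 before a 20 min TNFalpha stimulation; signal is the nuclear over cytoplasmic p65 intensity ratio per well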
- Condition: HUVEC TNFa-induced p65 nuclear translocation; at 2 µM, hits give high values, 0% TNFa-plus-vehicle, 100% no-TNFa wells
Form field: inhibition (one value per entry).
Test Readout: inhibition (%)

> print(dat)
                                    compound  test.readout  unit.symbol  recorded.value
 1  CCCC(=O)Nn1cnc2c(c1=O)C1(CCCC1)Cc1ccccc1-2    inhibition            %            -2.6
 2  CC(C)(C)c1ccc(C(O)CCCN2CCC(C(O)(c3ccccc3)c3ccccc3)CC2)cc1 (stereo not drawn)    inhibition            %             6.8
 3     O=S1CCCSC1c1cccnc1 (stereo not drawn)    inhibition            %           -10.3
 4               CNc1oc(-c2ccc(Cl)cc2)nc1C#N    inhibition            %            -4.2
 5  CCOc1cc2nc(-c3ccc(OC)c(OC)c3)nc(N3CCOCC3)c2cc1OC    inhibition            %           -26.2
 6           CCCCOc1ccc(CN(C)c2ncnc(N)n2)cc1    inhibition            %            -1.7
 7  O=C(O)C1CSC(CCc2ccccc2)N1 (stereo not drawn)    inhibition            %            -7.7
 8  Cc1cc(C(F)(F)F)nn1CC(=O)NCC1CCCO1 (stereo not drawn)    inhibition            %            -3.1
 9     Cc1ccc(OCC(=O)N2CCC(N3CCCCCC3)CC2)cc1    inhibition            %             -12
10                           O=C(O)c1ccccc1S    inhibition            %              -5
11  O=C1OC(Nc2ccc(Br)cc2F)c2ccccc21 (stereo not drawn)    inhibition            %            -1.6
12  Cc1c(C2Nc3ccccc3NC3=C2C(=O)CC(C)(C)C3)cnn1C (stereo not drawn)    inhibition            %            34.8
13       CN1CCN(/C=N/c2sc3c(c2C#N)CCCCC3)CC1    inhibition            %            -4.8
14  c1coc(-c2nc3nc4ccccc4nc3n2-c2ccc3c(c2)OCCO3)c1    inhibition            %            -1.4
15  OC[C@H]1O[C@@H](n2cnc3c(NC4CCCC4)ncnc32)[C@H](O)[C@@H]1O    inhibition            %           -13.1
16           CN=C1c2cc3c(Br)c(OC)ccc3n2CCN1C    inhibition            %           -16.9
17  O=C1CC(c2ccccc2)NC(=O)N1 (stereo not drawn)    inhibition            %           -11.2
18  CCn1cc(C(=O)NCCCN(C)C)c(=O)c2cc(F)c(N3CCN(C)CC3)cc21    inhibition            %            -2.8
19  COC(=O)CN(c1cc(OC)ccc1OC)S(=O)(=O)c1ccc(OC)c(OC)c1    inhibition            %              -5
20  Clc1ccccc1CSc1nnc(-c2ccco2)c(-c2ccco2)n1    inhibition            %            -6.9
21        CCn1c(SCC(=O)O)nc2sc3c(c2c1=O)CCC3    inhibition            %            -3.3
22  O=C1C(=O)N(CCN2CCOCC2)C(c2ccccn2)/C1=C(/O)c1ccc(F)cc1 (stereo not drawn)    inhibition            %            -5.8
23  C[C@]12C=CC(=O)C=C1CC[C@@H]1[C@@H]2[C@@H](O)C[C@@]2(C)[C@H]1CC[C@]2(O)C(=O)COC(=O)CCC(=O)O    inhibition            %            -6.3
24  CCN1CC=C2C(C#N)=C(N)C(C#N)(C#N)[C@H](c3cccc(OC)c3OC)[C@H]2C1    inhibition            %           -11.4
25  CC1CN(c2oc(-c3ccccc3Cl)nc2C#N)CC(C)O1 (stereo not drawn)    inhibition            %            -5.2
26  COC(=O)c1ccc(C2/C(=C(/O)c3ccc(OC)cc3)C(=O)C(=O)N2c2cc(C)on2)cc1 (stereo not drawn)    inhibition            %           -11.6
27           Cn1c(NCCN2CCCCC2)cc(=O)n(C)c1=O    inhibition            %             4.3
28  CCOc1ccc(/C(O)=C2/C(=O)C(=O)N(CCN(CC)CC)C2c2ccco2)cc1 (stereo not drawn)    inhibition            %           -10.3
29           COc1cc(C(=O)Nc2nccs2)cc(OC)c1OC    inhibition            %           -19.4
30         COC(=O)CSc1nc(N)c2c3c(sc2n1)CCCC3    inhibition            %           -10.6
31     COc1ccc(C2=Nn3c(nnc3-c3ccccn3)SC2)cc1    inhibition            %            -4.7
32  CC(C)C(C(=O)Nc1ncn[nH]1)N1C(=O)c2ccccc2C1=O (stereo not drawn)    inhibition            %              -7
33  CCCOc1ccc(N2C(=O)CC(N(Cc3ccc(S(N)(=O)=O)cc3)C(=O)CC)C2=O)cc1 (stereo not drawn)    inhibition            %            -4.6
34  COc1ccccc1C(=O)N1CCN(Cc2ccc3c(c2)OCO3)CC1    inhibition            %           -14.5
35             CCCCNC(=O)N(C)c1nncnc1C(=O)NC    inhibition            %           -10.8
36  CCOC(=O)c1ccc(NC(=O)CCC(CC)C(=O)O)cc1 (stereo not drawn)    inhibition            %           -23.7
37               CCc1nc2sc3c(c2c(=O)o1)CCCC3    inhibition            %            -8.2
38       NS(=O)(=O)c1cc2c(cc1Cl)NC=NS2(=O)=O    inhibition            %            -6.4
